- Tested on: MS2 coat protein
- experiment-summary: apparent KD of MS2 coat protein; designed switch direction (-1 OFF switch, 1 ON switch): -1; higher = weaker reporter binding
- reported-conditions: Eterna round: R95; input ligand: none
measurement-kind: apparent KD of MS2 coat protein (nM)
Kindly provide the numeric value in nM only, without the unit symbol.

Past entries and their recorded results:
UUUAAUUUUUUUUUUUUACAAGCUUUUUGCUCGUCUUAUACAUGAGGAUCACCCAUGUGGAUGGAGGAUAAAUUAUC [JMF 31] (puzzle: Sensor v3, turn-off variant 2)    16.2
AAUAACAGAGGAUAUACUAUUUUAUGUAUUUAUUAUUUUAAACAUGAGGAUCACCCAUGUAGAAGGCUGAAUGA [JMF 54] (puzzle: Exclusion 2)    21.5
UAGCUUCCGGUCAGGAUAUACGCUGGCGAAUAGCAGUAGAAGGGACAUGAGGAUCACCCAUGUGGGUUCAAAGA [Zabetima] (puzzle: Brourd's mod of Exclusion 4)    44.2
GCGUGUGCCUAGGAUAUUGGGAAUAUGCAGAAACGAGAAGGAGGCACAUGAGGAUCACCCAUGUGAUGAAAAGA [Teesedri] (puzzle: Exclusion 6)    61.7
AUAUUAACAUAGGAUAUCGAAUAAAUUAUUUAACGAGAAGGAUGAACAUGAGGAUCACCCAUGUGGUAUCAUGG [Mat - Exclusion 6 - JL Mod - D29] (puzzle: Exclusion 6)    411

Tell me reported apparent KD of MS2 coat protein for UUAUAUAAUGUGAGGAUAUGCUGGUCCAUAGAUCAGCAGAAGGCACAUGAGGAUCACCCAUGUAGUAAAUUUUA [Mat - Exclusion 4 - JL Mod - D12] (puzzle: Brourd's mod of Exclusion 4) , tested with MS2 coat protein. 14.8

Give the reported apparent KD of MS2 coat protein for UAUUAGCAAGCGAGAUCCCACAUGAGGAUCACCCAUGUGCUCGUCUUAUAAGGUACUGUGACGAAAGUCACGGUACC [Sensor 3, v1 - 91] (puzzle: Sensor v3, turn-off variant 1) (system: MS2 coat protein). 10.8

Please state recorded apparent KD of MS2 coat protein (tested on MS2 coat protein) of CAUGGAUGUGAGCCGCAUUACAUGAGGAUCACCCAUGUCAACAAGCUUUUUGCUUGUCUUACGCGGCGGCAUCAAAA [Geonso] (puzzle: Sensor v3, turn-off variant 1) 10.3

For MS2 coat protein, provide apparent KD of MS2 coat protein of AAAGAAGAAGUCAGGAUAUAGUUAAAGAAGACCGACUAGAAGGGACAUGAGGAUCACCCAUGUGUCAGUGGGUA [Lasoaned] (puzzle: Brourd's mod of Exclusion 4) please. 133

Lab note: need apparent KD of MS2 coat protein with MS2 coat protein for entry UUUAAUUUUUUUUUUUUACAAGCUUUUUGCUCGUCUUAUACAUGAGGAUCACCCAUGUGGGUAGAGGAUAAAUUAUC [JMF 28] (puzzle: Sensor v3, turn-off variant 2) , please look it up. 36.2

Item AAGAAACGAGGAUAUACAAUUGAGUGAGAGAGGGAAGUGUGACAUGAGGAUCACCCAUGUAGAAGGCGUGAGAG [JR_Exclu2_Sub086] (puzzle: Exclusion 2) with MS2 coat protein - apparent KD of MS2 coat protein? 80.4

###

- Test system: MS2 coat protein
- experiment-summary: apparent KD of MS2 coat protein; designed switch direction (-1 OFF switch, 1 ON switch): -1; higher = weaker reporter binding
- reported-conditions: input ligand: none
Below, each of the sequences is paired with its reported apparent KD of MS2 coat protein value.
The figure you give is taken to be in µM; do not add the unit.

UGACCUAAAGGAUAUACAUGAGGAUCACCCAUGUCUUCAGCUGCCGUAAGGGAUCUUAGUAGAAGGUUAGGUCG [Eternabot (L1) Solution 43] (Eterna round: R97, puzzle: Exclusion 3)    0.084

In the following, a different sequence is considered.
# apparent KD of MS2 coat protein lookup, item CUAGGGCACAUUUAAACGCCCUAACAUGAGGAUCACCCAUGUCAGGAUAUGUAGGCAAAGACCCUACAGAAGGGACAUGUCCUA [Recebe] (Eterna round: R96, puzzle: Exclusion NG 3) 0.0529
